Read-out: Vascular cell adhesion molecule 1 (VCAM1), VCAM1 (gene 7412)
assay remarks: BSK_hDFCGF_VCAM1: BioMAP Diversity Plus: hDFCGF Assay for Vascular cell adhesion molecule 1 (VCAM1) Biomarker Activity (AID 2283065)
condition context: primary human foreskin fibroblasts; actives raise or lower the signal
Activity calls are given as the source filed them. Rule for the calls: active = hit-call score of the fitted dose curve at least 0.9, where 1 is the maximum; inactive = score below 0.9.
Possible outcomes: class 1 (active), class 0 (inactive)

{"compound": "Cc1cc(C)c(O)c(C(C)(C)C)c1", "class name": "class 1"}
{"compound": "O=C=Nc1cccc2c(N=C=O)cccc12", "class name": "class 0"}
{"compound": "CC1=CC2C3C=CC(C3)C2C1C (stereo not drawn)", "class name": "class 0"}
{"compound": "O=C(F)C1(F)C(F)(F)C(F)(F)C(F)(F)C(F)(F)C1(F)F", "class name": "class 0"}
{"compound": "O=C(O)C(F)(F)C(F)(F)C(F)(F)C(=O)O", "class name": "class 0"}
{"compound": "C[C@]12CC[C@H]3C(=CCc4cc(O)ccc43)[C@@H]1CCC2=O", "class name": "class 0"}
{"compound": "Cc1ccc(O)c(-n2nc3ccccc3n2)c1", "class name": "class 0"}
{"compound": "NC(=O)C(F)(F)C(F)(F)C(F)(F)C(F)(F)C(N)=O", "class name": "class 0"}
{"compound": "CC(C)(C)c1cc(CCC(=O)NCCCCCCNC(=O)CCc2cc(C(C)(C)C)c(O)c(C(C)(C)C)c2)cc(C(C)(C)C)c1O", "class name": "class 0"}
{"compound": "OCC(F)(F)C(F)(F)C(F)(F)CO", "class name": "class 0"}
{"compound": "Cc1cnccn1", "class name": "class 0"}
{"compound": "OCC(O)CC(F)(F)C(F)(F)C(F)(F)C(F)(F)C(F)(F)C(F)(F)C(F)(F)C(F)(F)F (stereo not drawn)", "class name": "class 0"}
{"compound": "O=C(c1ccccc1)c1ccc(O)cc1O", "class name": "class 0"}

Recorded values, source PubChem BioAssay (EPA / NIEHS).
